test: Rat biodistribution of Tc-99m complexes; details: 2 min p.i.
measurement-name: Heart

INSERT INTO measurements (molecule, measurement_name, assay_result) VALUES
  ('CCOCCP(CCOC(C)C)CCP(CCOCC)CCOC(C)C (centres unmarked)', 'Heart', '1.21 % Injected dose/organ'),
  ('C1COC(CP(CCCP(CC2CCCO2)CC2CCCO2)CC2CCCO2)C1 (centres unmarked)', 'Heart', '0.59 % Injected dose/organ'),
  ('CCOCCP(CCOCC)c1ccccc1P(CCOCC)CCOCC', 'Heart', '0.82 % Injected dose/organ'),
  ('COC(C)CCP(CCC(C)OC)CCP(CCC(C)OC)CCC(C)OC (centres unmarked)', 'Heart', '0.62 % Injected dose/organ'),
  ('CCOC(C)CP(CCP(CC(C)OCC)CC(C)OCC)CC(C)OCC (centres unmarked)', 'Heart', '1.21 % Injected dose/organ'),
  ('CCOCP(CCCP(COCC)COCC)COCC', 'Heart', '0.50 % Injected dose/organ'),
  ('CCOCCP(CCCP(CCOCC)CCOCC)CCOCC', 'Heart', '0.41 % Injected dose/organ'),
  ('CCOC(CCP(CCC(OCC)OCC)CCP(CCC(OCC)OCC)CCC(OCC)OCC)OCC', 'Heart', '1.01 % Injected dose/organ'),
  ('CC1(C)OCC(CP(CCP(CC2COC(C)(C)O2)CC2COC(C)(C)O2)CC2COC(C)(C)O2)O1 (centres unmarked)', 'Heart', '0.99 % Injected dose/organ'),
  ('C1COC(CP(CCP(CC2CCCO2)CC2CCCO2)CC2CCCO2)C1 (centres unmarked)', 'Heart', '1.82 % Injected dose/organ'),
  ('COCCCP(CCCOC)CCP(CCCOC)CCCOC', 'Heart', '0.44 % Injected dose/organ'),
  ('FC(F)(F)COCCCP(CCCOCC(F)(F)F)CCP(CCCOCC(F)(F)F)CCCOCC(F)(F)F', 'Heart', '0.43 % Injected dose/organ'),
  ('C1OCC(CP(CCP(CC2COCO2)CC2COCO2)CC2COCO2)O1 (centres unmarked)', 'Heart', '0.37 % Injected dose/organ'),
  ('CCOCCCP(CCCOCC)CCP(CCCOCC)CCCOCC', 'Heart', '1.00 % Injected dose/organ'),
  ('COCC(C)CP(CCP(CC(C)COC)CC(C)COC)CC(C)COC (centres unmarked)', 'Heart', '0.41 % Injected dose/organ'),
  ('COC(CCP(CCC(OC)OC)CCP(CCC(OC)OC)CCC(OC)OC)OC', 'Heart', '0.46 % Injected dose/organ'),
  ('C1CC(CP(CCP(CC2CCOCC2)CC2CCOCC2)CC2CCOCC2)CCO1', 'Heart', '0.40 % Injected dose/organ'),
  ('COC(C)(C)CCP(CCP(CCC(C)(C)OC)CCC(C)(C)OC)CCC(C)(C)OC', 'Heart', '0.79 % Injected dose/organ'),
  ('COC(C)CP(CCP(CC(C)OC)CC(C)OC)CC(C)OC (centres unmarked)', 'Heart', '0.31 % Injected dose/organ'),
  ('CCOCCP(CCOCC)CC(CP(CCOCC)CCOCC)OC', 'Heart', '1.05 % Injected dose/organ'),
  ('CCOCCP(CCOCC)CCP(CCOCC)CCOCC [Compound 1, (EtOC2 H4)2 P--C2 H4 --P(C2 H4 OEt)2]', 'Heart', '1.66 % Injected dose/organ'),
  ('CCOCCP(CCOCCF)CCP(CCOCC)CCOCCF (centres unmarked)', 'Heart', '0.85 % Injected dose/organ'),
  ('COCC(COC)CP(CCP(CC(COC)COC)CC(COC)COC)CC(COC)COC', 'Heart', '1.14 % Injected dose/organ'),
  ('CCOCCOCCP(CCOCCOCC)CCP(CCOCCOCC)CCOCCOCC', 'Heart', '0.54 % Injected dose/organ'),
  ('COCCP(CCOC)CCP(CCOC)CCOC', 'Heart', '0.66 % Injected dose/organ'),
  ('CCOCC(COCC)CP(CCP(CC(COCC)COCC)CC(COCC)COCC)CC(COCC)COCC', 'Heart', '0.58 % Injected dose/organ'),
  ('CCOCCCP(CCOC)CCP(CCCOCC)CCOC (centres unmarked)', 'Heart', '0.73 % Injected dose/organ'),
  ('CCOCP(CCP(COCC)COCC)COCC', 'Heart', '0.54 % Injected dose/organ'),
  ('CCC(CP(CCP(CC(CC)OC)CC(CC)OC)CC(CC)OC)OC (centres unmarked)', 'Heart', '0.70 % Injected dose/organ'),
  ('CCOCCP(CCOC)CCP(CCOC)CCOCC (centres unmarked)', 'Heart', '0.82 % Injected dose/organ'),
  ('CCOC=CP(C=COCC)CCP(C=COCC)C=COCC', 'Heart', '0.58 % Injected dose/organ'),
  ('CCCOCCP(CCOC)CCP(CCOC)CCOCCC (centres unmarked)', 'Heart', '1.23 % Injected dose/organ');

The values you see were collected from patent US5045302A.
